- TEST_SYSTEM: human 5-HT1A receptor (Homo sapiens)
- Sequence (P08908 1-422): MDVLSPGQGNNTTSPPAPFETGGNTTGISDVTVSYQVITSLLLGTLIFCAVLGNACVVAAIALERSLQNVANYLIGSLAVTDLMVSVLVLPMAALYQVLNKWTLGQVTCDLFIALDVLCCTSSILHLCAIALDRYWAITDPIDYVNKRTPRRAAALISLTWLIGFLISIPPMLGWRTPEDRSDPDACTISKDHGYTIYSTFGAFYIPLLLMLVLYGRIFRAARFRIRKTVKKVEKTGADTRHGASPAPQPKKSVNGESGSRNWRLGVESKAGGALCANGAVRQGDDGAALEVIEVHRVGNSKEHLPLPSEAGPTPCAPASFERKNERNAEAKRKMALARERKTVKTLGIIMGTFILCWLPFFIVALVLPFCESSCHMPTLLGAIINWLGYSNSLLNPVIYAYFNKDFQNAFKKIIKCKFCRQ
Can you tell me Ki for the items I'm about to list?
Form entry: value (nM) — number only.

Data request: Give the measured Ki for COc1cc(CCN)c(OC)cc1Cl [2C-C, 2,5-dimethoxy-4-chlorophenethylamine]
Data returned: 740

Data request: Specify measured Ki for COc1cc(CC(C)N)c(OC)cc1C (centres unmarked) [DOM, 2,5-dimethoxy-4-methylamphetamine, reference compound] .
Data returned: 11900

Data request: Return Ki for the following compound: CNC(C)Cc1ccc2c(c1)OCO2 (centres unmarked) [MDMA, 3,4-methylenedioxymethamphetamine, reference compound]
Data returned: 11900

Data request: For the compound COc1cc(CCN)c(OC)cc1I [2C-I, 2,5-dimethoxy-4-iodophenethylamine] , give its reported Ki.
Data returned: 970

Data request: Determine from records and report Ki for CCSc1cc(OC)c(CCN)cc1OC [2C-T-2, 2,5-dimethoxy-4-ethylthiophenethylamine]
Data returned: 1740

Data request: Report Ki, nothing else, for this compound: COc1cc(CCN)c(OC)cc1C [2C-D, 2,5-dimethoxy-4-methylphenethylamine]
Data returned: 1630

Data request: Give the value of Ki reported for the following: CN[C@@H](C)Cc1ccccc1 [METH, methamphetamine, reference compound]
Data returned: 9700

----------
- TEST_SYSTEM: hSERT (Homo sapiens, UniProt P31645)
- Sequence (P31645 whole entry): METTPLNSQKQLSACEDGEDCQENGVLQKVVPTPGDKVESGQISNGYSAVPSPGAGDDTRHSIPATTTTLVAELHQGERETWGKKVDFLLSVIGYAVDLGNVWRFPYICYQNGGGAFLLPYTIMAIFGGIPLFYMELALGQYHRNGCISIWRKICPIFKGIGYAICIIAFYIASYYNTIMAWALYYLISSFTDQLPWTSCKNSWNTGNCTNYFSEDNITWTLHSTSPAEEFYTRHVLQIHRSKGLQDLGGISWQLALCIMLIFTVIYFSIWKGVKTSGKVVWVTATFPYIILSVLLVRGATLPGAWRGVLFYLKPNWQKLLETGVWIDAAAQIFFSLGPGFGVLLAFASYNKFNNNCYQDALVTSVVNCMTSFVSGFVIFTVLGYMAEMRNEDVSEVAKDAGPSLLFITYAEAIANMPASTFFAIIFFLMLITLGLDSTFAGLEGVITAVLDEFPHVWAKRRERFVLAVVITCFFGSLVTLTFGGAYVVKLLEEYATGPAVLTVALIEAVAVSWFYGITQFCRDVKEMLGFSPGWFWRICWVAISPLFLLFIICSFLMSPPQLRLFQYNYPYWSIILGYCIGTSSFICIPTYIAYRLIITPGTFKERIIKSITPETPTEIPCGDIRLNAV
- PROTOCOL_DETAILS: [125I]RTI-55 binding, HEK-hSERT cells
- TEST_PARAMETERS: read-out: hSERT [125I]RTI-55 binding Ki; HEK-hSERT cells; cells printed in μM
EXPERIMENTAL_ENDPOINT: Ki

Data request: # return recorded Ki for entry CCN(CC)C(=O)[C@@H]1C=C2c3cccc4[nH]cc(c34)C[C@H]2N(C)C1 [LSD, lysergic acid diethylamide, reference compound]
Data returned: > 10 µM

----------
- TEST_SYSTEM: human 5-HT1A receptor (Homo sapiens)
- PROTOCOL_DETAILS: [35S]GTPγS binding functional assay, HEK-5-HT1A
Kindly supply the reported pEC50 values for the records listed here.
Scale for pEC50: -log10 of concentration given in mol/L; no unit attached.

Data request: Fill in pEC50 for record CNC(C)Cc1ccc2c(c1)OCO2 (centres unmarked) [MDMA, 3,4-methylenedioxymethamphetamine, reference compound]
Data returned: 4.44

Data request: # return recorded pEC50 for input COc1cc(CCN)c(OC)cc1I
Data returned: 5.31

Data request: // Input: COc1cc(CC(C)N)c(OC)cc1C (centres unmarked) [DOM, 2,5-dimethoxy-4-methylamphetamine, reference compound] . Output its pEC50 only.
Data returned: 4.86

Data request: Supply recorded pEC50 for CCSc1cc(OC)c(CCN)cc1OC here.
Data returned: 5.52

Data request: Determine from records and report pEC50 for CN[C@@H](C)Cc1ccccc1 [METH, methamphetamine, reference compound]
Data returned: 4.63

----------
- TEST_SYSTEM: UniProtKB P08908
- Sequence (P08908 1-422): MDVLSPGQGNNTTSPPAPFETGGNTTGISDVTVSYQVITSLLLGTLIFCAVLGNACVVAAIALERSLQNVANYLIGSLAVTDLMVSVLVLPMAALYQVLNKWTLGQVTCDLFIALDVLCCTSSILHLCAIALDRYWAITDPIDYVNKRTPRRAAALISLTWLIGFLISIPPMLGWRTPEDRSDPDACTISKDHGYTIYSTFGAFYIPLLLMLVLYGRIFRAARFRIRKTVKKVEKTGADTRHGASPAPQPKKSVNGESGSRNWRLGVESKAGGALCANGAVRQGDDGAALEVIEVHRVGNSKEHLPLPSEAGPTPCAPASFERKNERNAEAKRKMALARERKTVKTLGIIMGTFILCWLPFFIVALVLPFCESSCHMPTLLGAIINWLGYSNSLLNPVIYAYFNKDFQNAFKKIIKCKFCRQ
- PROTOCOL_DETAILS: [35S]GTPγS binding functional assay, HEK-5-HT1A
- Assay type: biochemical
- TEST_PARAMETERS: read-out: 5-HT1A Function [35S]GTPγS Binding % maximal effect
EXPERIMENTAL_ENDPOINT: Emax (%)
Write it as a number; the unit % goes unstated.

Data request: Give the value of Emax reported for the following: CCSc1cc(OC)c(CCN)cc1OC [2C-T-2, 2,5-dimethoxy-4-ethylthiophenethylamine]
Data returned: 76

Data request: Respond only with Emax recorded for CN(C)CCc1c[nH]c2ccccc12 [DMT, N,N,-dimethyltryptamine, reference compound]
Data returned: 100

Data request: Look up Emax of CN[C@@H](C)Cc1ccccc1 [METH, methamphetamine, reference compound] and report it.
Data returned: 68

Data request: Answer with reported Emax of COc1cc(CC(C)N)c(OC)cc1C (stereo not shown) [DOM, 2,5-dimethoxy-4-methylamphetamine, reference compound]
Data returned: 53.8

Data request: Give the reported value of Emax for this record: COc1cc(CCN)c(OC)cc1I [2C-I, 2,5-dimethoxy-4-iodophenethylamine]
Data returned: 102

Data request: Quick one: give measured Emax for CNC(C)Cc1ccc2c(c1)OCO2 (stereo not shown) [MDMA, 3,4-methylenedioxymethamphetamine, reference compound]
Data returned: 64.3

----------
- TEST_SYSTEM: human 5-HT2A receptor (Homo sapiens, UniProt P28223)
- Sequence (P28223 whole entry): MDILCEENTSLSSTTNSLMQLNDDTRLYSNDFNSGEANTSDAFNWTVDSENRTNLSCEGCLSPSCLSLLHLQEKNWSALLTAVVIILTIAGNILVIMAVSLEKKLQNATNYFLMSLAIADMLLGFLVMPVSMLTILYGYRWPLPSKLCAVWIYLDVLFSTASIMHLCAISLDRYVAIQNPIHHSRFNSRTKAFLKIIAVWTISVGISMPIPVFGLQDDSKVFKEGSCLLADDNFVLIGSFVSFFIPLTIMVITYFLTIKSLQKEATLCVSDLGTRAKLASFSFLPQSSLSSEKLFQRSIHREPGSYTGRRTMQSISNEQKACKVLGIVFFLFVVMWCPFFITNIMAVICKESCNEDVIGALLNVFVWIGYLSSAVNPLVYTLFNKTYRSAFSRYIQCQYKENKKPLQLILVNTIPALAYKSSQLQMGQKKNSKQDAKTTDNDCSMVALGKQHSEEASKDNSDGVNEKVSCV
- PROTOCOL_DETAILS: IP-1 formation, HEK-5-HT2A cells
- Assay type: cell-based
- TEST_PARAMETERS: read-out: 5-HT2A Function IP-1 formation % maximal effect
Hi there, I'd appreciate the recorded Emax for every entry that follows.
Number only, in %; omit the unit.

Data request: Return Emax for the following compound: COc1cc(CC(C)N)c(OC)cc1C (stereo not shown) [DOM, 2,5-dimethoxy-4-methylamphetamine, reference compound]
Data returned: 106

Data request: Indicate its recorded Emax; the compound in question is COc1cc(CC(C)N)c(OC)cc1Cl (stereo not shown) [DOC, 2,5-Dimethoxy-4-chloroamphetamine]
Data returned: 102

Data request: Quickly give me recorded Emax for COc1cc(CCN)c(OC)cc1I [2C-I, 2,5-dimethoxy-4-iodophenethylamine]
Data returned: 82.4

Data request: Determine from records and report Emax for COc1cc(CCN)c(OC)cc1C [2C-D, 2,5-dimethoxy-4-methylphenethylamine]
Data returned: 93

----------
- TEST_SYSTEM: human 5-HT1A receptor (Homo sapiens, UniProt P08908)
- PROTOCOL_DETAILS: [35S]GTPγS binding functional assay, HEK-5-HT1A
pEC50: −log10 of the molar value.
Please respond with reported pEC50 for every item in the list.

Data request: # return recorded pEC50 for input COc1cc(CCN)c(OC)cc1Cl
Data returned: < 5.00

Data request: State, in one line, measured pEC50 of COc1cc(CC(C)N)c(OC)cc1Cl (stereo not drawn)
Data returned: < 5.00

Data request: Give the value of pEC50 reported for the following: COc1cc(CCN)c(OC)cc1C
Data returned: < 5.00

----------
Can you tell me Emax for the items I'm about to list?
- TEST_SYSTEM: human 5-HT1A receptor (Homo sapiens)
- PROTOCOL_DETAILS: [35S]GTPγS binding functional assay, HEK-5-HT1A
- Type: biochemical
- TEST_PARAMETERS: read-out: 5-HT1A Function [35S]GTPγS Binding % maximal effect

Data request: Respond only with Emax recorded for COc1cc(CC(C)N)c(OC)cc1Cl (stereo not shown)
Data returned: < 10%

Data request: Quickly give me recorded Emax for CCc1cc(OC)c(CCN)cc1OC
Data returned: < 20%

Data request: Please give measured Emax of the following entry: COc1cc(CCN)c(OC)cc1C
Data returned: < 25%

Data request: Answer with reported Emax of COc1cc(CCN)c(OC)cc1Cl
Data returned: < 25%

FYI, the data here is from paper PMC3945162.
